# STUDY TARGET: GLP-1R (Homo sapiens)
# Sequence (P43220 24-463, species assumed): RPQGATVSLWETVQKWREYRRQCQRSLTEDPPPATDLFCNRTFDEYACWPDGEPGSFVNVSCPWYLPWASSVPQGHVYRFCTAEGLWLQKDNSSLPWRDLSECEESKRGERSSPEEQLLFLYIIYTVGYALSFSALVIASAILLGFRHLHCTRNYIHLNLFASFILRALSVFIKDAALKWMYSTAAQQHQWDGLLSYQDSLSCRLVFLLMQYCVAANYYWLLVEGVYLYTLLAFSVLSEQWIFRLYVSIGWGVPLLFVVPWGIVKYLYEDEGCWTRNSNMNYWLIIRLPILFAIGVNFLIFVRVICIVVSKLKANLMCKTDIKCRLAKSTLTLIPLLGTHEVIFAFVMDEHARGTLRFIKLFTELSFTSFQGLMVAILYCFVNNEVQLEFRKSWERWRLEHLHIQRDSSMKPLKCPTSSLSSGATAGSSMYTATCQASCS
# TEST METHOD NOTES: β-arrestin-2 recruitment to GLP-1R measured by BRET
# Type: cell-based
Square brackets hold non-standard residues; d marks the D form. Ends that are not written are not given here. Aib = CC(C)(N)C(=O)O
PARAMETER MEASURED: pEC50
Scale: pEC50 equals -log10([C]), with [C] in mol/L.

Task: Suppose we examine the substance H[Aib]QGTFTSDYSKYLDERAAQDFVQWLLDGGPSLRHYLNLVTRQRY-NH2 (C-terminus assumed) [TC0] ; what pEC50 value has been reported?
Result: 7.67

Provenance of the data: paper PMC12560177
